- targetDesc: Single-strand selective monofunctional uracil DNA glycosylase (Homo sapiens);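 also: enzymatic SMUG1 assay coupled with APE1, reading fluorescence at 594 nm released when a quenched double-stranded DNA oligonucleotide substrate is cleaved and separated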
- Sequence (whole entry): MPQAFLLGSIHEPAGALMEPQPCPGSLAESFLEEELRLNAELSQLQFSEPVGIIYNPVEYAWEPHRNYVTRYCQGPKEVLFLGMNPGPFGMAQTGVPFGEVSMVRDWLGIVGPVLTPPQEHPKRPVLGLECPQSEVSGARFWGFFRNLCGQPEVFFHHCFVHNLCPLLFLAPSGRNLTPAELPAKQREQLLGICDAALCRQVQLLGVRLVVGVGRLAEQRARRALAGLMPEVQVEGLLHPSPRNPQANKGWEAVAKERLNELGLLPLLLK
- experimentalSetup: Compound Concentration 10.0 uM, Hit No
- Description: Inhibition of SMUG1 by quantifying inhibition of SMUG1-mediated cleavage and dissociation of quenched duplex DNA oligonucleotides, measured as fluorescence at 594 nm. To generate a functional strand incision and increase turn-over this assay is coupled to APE1.
Attribute: inhibition

molecule	unitSymbol	inhibition
CC(=O)C1=C(C)N(c2cccc(C(F)(F)F)c2)C(=O)N[C@H]1c1ccc(C#N)nc1	%	10.2
CN(C)CC#Cc1ccc(OCCCc2sc(N3CCc4cccc(C(=O)Nc5nc6ccccc6s5)c4C3)nc2C(=O)O)c(F)c1	%	1.49
CO[C@H]1CC[C@H](CNc2ccc(S(=O)(=O)NC(=O)c3ccc(N4CCN(CC5=C(c6ccc(Cl)cc6)CC(C)(C)CC5)CC4)cc3Oc3cnc4[nH]ccc4c3)cc2[N+](=O)[O-])CC1	%	17.9
CCOC(=O)c1ncn2c1CN(C)C(=O)c1cc(F)ccc1-2	%	-0.518
